Target: esterase
Experiment: Esterase inhibiting activity
Assay type: biochemical
Conditions: rat liver microsome esterase, methyl butyrate substrate, pH 8.0, 37° C., 60 minutes; read-out: IC50 for esterases
pIC50: −log10 of the molar value.
pIC50 vs 6: at or above is t, below is f.

Hello, I need to know if `CCOc1ccc(S(=O)(=O)OCC(=O)CCCC(=O)OC)cc1` has measured pIC50 not below 6. Thanks!
f

Hello, I need to know if O=C(CCC1CCCCC1)COS(=O)(=O)c1ccccc1 [Compound 164, 2-oxo-4-cyclohexyl-butylbenzenesulfonate] has measured pIC50 not below 6. Thanks!
f

Hello, I need to know if `CCCCCC(=O)COS(=O)(=O)c1c(C)c(C)cc(C)c1C` has measured pIC50 not below 6. Thanks!
t

Hello, I need to know if `CCCC(=O)COS(=O)(=O)c1ccc2ccccc2c1` has measured pIC50 not below 6. Thanks!
f

Hello, I need to know if `O=C(CCCCCNC(=O)OCc1ccccc1)COS(=O)(=O)c1ccccc1` has measured pIC50 not below 6. Thanks!
f

Hello, I need to know if `COCCCC(=O)COS(=O)(=O)c1ccccc1` has measured pIC50 not below 6. Thanks!
f

Hello, I need to know if CCCC(CC)C(=O)COS(=O)(=O)c1ccc(OCC)cc1 (stereo not drawn) has measured pIC50 not below 6. Thanks!
f

Hello, I need to know if `Cc1cc(C)c(S(=O)(=O)OCC(=O)CC2CCCCC2)c(C)c1` has measured pIC50 not below 6. Thanks!
t
